What log10(IC50) was measured for each of the following?
Tested on: Jurkat (FADD−/−) cells
Experiment: Inhibition of TNF-induced programmed Jurkat (FADD−/−) cell necrosis (Cell Titer-Glo)
Format: cell-based, human
Conditions: Homo sapiens, Jurkat, 20 h, read-out: Cellular IC50 (M) Jurkat (FADD−/−)
Scale type: logarithmic (base 10). Underlying IC50 unit: M.

// below: answered molecules
CN1C(=O)[C@@H](NC(=O)c2nnc(Cc3ccccc3)o2)COc2cc3[nH]nnc3cc21 [RIP1-153]	-8.82
CN1C(=O)[C@@H](NC(=O)c2nnc(Cc3ccccc3)[nH]2)COc2ccc3cnccc3c21 [RIP1-107]	-8.97
CN1C(=O)[C@@H](NC(=O)c2cn(Cc3ccccc3)nn2)COc2cc3occc3cc21 [RIP1-121]	-7.86
CN1C(=O)[C@@H](NC(=O)c2ncn(Cc3ccccc3)n2)COc2cc3[nH]nc(Cl)c3cc21 [RIP1-032]	-9.62

The record that follows has no log10(IC50) shown yet.
Q: Given Cc1nc2cc3c(cc2[nH]1)OC[C@H](NC(=O)c1cn(Cc2ccccc2)cn1)C(=O)N3C [RIP1-067] , state its recorded log10(IC50).
A: -8.17

====

Target chain: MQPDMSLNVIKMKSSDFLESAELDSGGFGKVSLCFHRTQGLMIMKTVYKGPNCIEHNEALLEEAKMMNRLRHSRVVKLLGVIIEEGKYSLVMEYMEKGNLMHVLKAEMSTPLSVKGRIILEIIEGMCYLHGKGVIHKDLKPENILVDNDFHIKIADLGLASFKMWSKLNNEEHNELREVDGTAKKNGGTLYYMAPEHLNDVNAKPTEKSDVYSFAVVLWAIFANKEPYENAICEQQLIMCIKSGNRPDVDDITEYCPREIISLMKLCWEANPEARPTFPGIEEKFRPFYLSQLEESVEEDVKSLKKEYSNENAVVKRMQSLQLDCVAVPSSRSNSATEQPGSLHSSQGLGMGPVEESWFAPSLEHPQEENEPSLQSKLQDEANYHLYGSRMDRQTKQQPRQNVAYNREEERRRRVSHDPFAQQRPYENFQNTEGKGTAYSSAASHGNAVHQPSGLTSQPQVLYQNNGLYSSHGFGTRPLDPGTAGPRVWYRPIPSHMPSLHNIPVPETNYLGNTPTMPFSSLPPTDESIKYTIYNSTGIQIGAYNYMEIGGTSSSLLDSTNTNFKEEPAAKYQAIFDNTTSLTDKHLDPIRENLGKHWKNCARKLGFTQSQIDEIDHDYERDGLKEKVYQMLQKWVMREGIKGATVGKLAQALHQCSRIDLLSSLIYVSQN
propertyMeasured: pKi
Numbers only, as −log10 of the molar value.

# map each molecule to its pKi
1. Cc1nc2cc3c(cc2[nH]1)OC[C@H](NC(=O)c1ncn(Cc2ccccc2)n1)C(=O)N3C
2. CN1C(=O)[C@@H](NC(=O)c2cn(Cc3ccccc3)cn2)COc2cc3[nH]nnc3cc21
3. Cc1nc2cc3c(cc2[nH]1)OC[C@@H](NC(=O)c1cncn1Cc1ccccc1)C(=O)N3C (stereo in doubt)

A:
1. 7.37
2. 7.88
3. 7.50

====

Target: human RIP1 (Homo sapiens, UniProt Q13546)
What Ki was measured for each of the following?
Give bare numbers, in µM.

CN1C(=O)[C@@H](NC(=O)c2nnn(Cc3ccccc3)n2)COc2cc3occc3cc21 [RIP1-122]	0.0156
CN1C(=O)[C@@H](NC(=O)c2nnc(Cc3ccccc3)[nH]2)COc2ccc3cnccc3c21 [RIP1-107]	0.0089

# map each compound to its Ki
1. CN1C(=O)[C@@H](NC(=O)c2cn(Cc3ccccc3)nn2)COc2cc3[nH]nc(Cl)c3cc21 [RIP1-035]
2. CN1C(=O)[C@@H](NC(=O)c2noc(Cc3ccccc3)n2)COc2cc3[nH]nnc3cc21 [RIP1-140]

A:
1. 0.0078
2. 0.0506

====

Target: human RIP1 (Homo sapiens)
Sequence (Q13546 1-671): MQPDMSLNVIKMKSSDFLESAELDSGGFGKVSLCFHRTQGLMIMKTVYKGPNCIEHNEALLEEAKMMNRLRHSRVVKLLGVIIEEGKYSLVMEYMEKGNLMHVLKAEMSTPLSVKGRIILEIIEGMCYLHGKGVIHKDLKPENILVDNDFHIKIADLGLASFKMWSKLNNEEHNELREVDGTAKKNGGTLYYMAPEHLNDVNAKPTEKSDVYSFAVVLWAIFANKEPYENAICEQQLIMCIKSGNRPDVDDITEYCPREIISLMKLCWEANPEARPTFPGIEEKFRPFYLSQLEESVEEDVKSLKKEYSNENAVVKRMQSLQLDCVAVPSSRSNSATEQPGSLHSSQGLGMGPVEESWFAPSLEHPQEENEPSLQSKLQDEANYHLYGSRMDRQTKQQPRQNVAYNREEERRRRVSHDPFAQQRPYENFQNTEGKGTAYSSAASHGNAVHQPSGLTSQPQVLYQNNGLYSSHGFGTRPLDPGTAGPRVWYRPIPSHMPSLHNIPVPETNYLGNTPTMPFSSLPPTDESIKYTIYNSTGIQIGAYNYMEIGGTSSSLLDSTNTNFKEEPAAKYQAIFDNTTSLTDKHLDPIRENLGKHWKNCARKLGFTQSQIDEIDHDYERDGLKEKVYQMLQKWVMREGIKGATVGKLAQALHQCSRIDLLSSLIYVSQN
propertyMeasured: pKi
One number for each entry, as −log10 of the molar value.

// below: answered molecules
CN1C(=O)[C@@H](NC(=O)c2cn(Cc3ccccc3)nn2)COc2ccc3cnccc3c21 [RIP1-110]	7.84
CN1C(=O)[C@@H](NC(=O)c2nnc(Cc3ccccc3)[nH]2)COc2ccc3ncccc3c21 [RIP1-097]	7.63

The record that follows has no pKi shown yet.
Q: Param readout = pKi; param system = human RIP1 (Homo sapiens); param query = COc1ncnc2cc3c(cc12)N(C)C(=O)[C@@H](NC(=O)c1ncn(Cc2ccccc2)n1)CO3 [RIP1-145] ; response: value
A: 7.98

====

Test system: Jurkat (FADD−/−) cells
Assay: Inhibition of TNF-induced programmed Jurkat (FADD−/−) cell necrosis (Cell Titer-Glo)
Type: cell-based, human
Conditions: Homo sapiens, Jurkat, 20 h, TNF 10 ng/mL, intracellular ATP level, read-out: Cellular IC50 (M) Jurkat (FADD−/−)
propertyMeasured: log10 IC50 (log10 of the value in M)
Scale type: logarithmic (base 10). Underlying IC50 unit: M.

// below: answered compounds
CN1C(=O)[C@@H](NC(=O)c2nnn(Cc3ccccc3)n2)COc2cc3occc3cc21 [RIP1-122]	-9.65
COc1ncnc2cc3c(cc12)N(C)C(=O)[C@@H](NC(=O)c1n[nH]c(Cc2ccc(F)cc2)n1)CO3 [RIP1-158]	-8.10
CN1C(=O)[C@@H](NC(=O)c2cn(Cc3ccccc3)cn2)CSc2cc3c(ccn3C)cc21 [RIP1-055]	-8.64

# map each compound to its log10 IC50
1. CN1C(=O)[C@@H](NC(=O)c2cccc(Oc3ccccc3)n2)COc2ccc3ncccc3c21 [RIP1-194]
2. CN1C(=O)[C@@H](NC(=O)c2ccnc(Oc3ccccc3)n2)COc2ccc3ncccc3c21 [RIP1-199]
3. CN1C(=O)[C@@H](NC(=O)c2cc(Oc3ccccc3)ccn2)COc2cc3[nH]ccc3cc21 [RIP1-189]
4. CN1C(=O)[C@@H](NC(=O)c2ncn(Cc3ccccc3)n2)COc2cc3[nH]ncc3cc21 [RIP1-025]

A:
1. -5.14
2. -4.32
3. -9.71
4. -9.54

====

Tested on: Jurkat (FADD−/−) cells
Assay: Inhibition of TNF-induced programmed Jurkat (FADD−/−) cell necrosis (Cell Titer-Glo)
Assay type: cell-based, human
Settings: Homo sapiens, Jurkat, 20 h, TNF 10 ng/mL, intracellular ATP level, read-out: Cellular IC50 (M) Jurkat (FADD−/−)
propertyMeasured: IC50

// below: answered molecules
CN1C(=O)[C@@H](NC(=O)c2cc(Cc3ccccc3)on2)COc2cc3[nH]ncc3cc21	5.8e-10 M
COc1ncnc2cc3c(cc12)N(C)C(=O)[C@@H](NC(=O)c1n[nH]c(Cc2cccc(F)c2)n1)CO3	8.7e-09 M
CN1C(=O)[C@@H](NC(=O)c2cncn2Cc2ccccc2)CSc2cc3c(ccn3C)cc21	> 2e-06 M

# map each molecule to its IC50
1. CN1C(=O)[C@@H](NC(=O)c2cn(Cc3ccccc3)cn2)COc2ccc3ncccc3c21
2. CN1C(=O)[C@@H](NC(=O)c2n[nH]c(Cc3cccc(F)c3)n2)COc2ccc3ncccc3c21
3. CN1C(=O)[C@@H](NC(=O)c2cc(Cc3ccccc3)ccn2)COc2cc3ncoc3cc21
4. CN1C(=O)[C@@H](NC(=O)c2n[nH]c(Cc3c(F)cccc3F)n2)COc2ccc3cnccc3c21

A:
["6.92e-09 M", "5e-09 M", "7.31e-09 M", "8.6e-09 M"]

Q: Given CN1C(=O)[C@H](NC(=O)c2cnn(Cc3ccccc3)c2)COc2cc3c(ccn3C)cc21 , state its recorded IC50.
A: > 2e-06 M
